Source listed as PubChem BioAssay.

z-score: recorded values
# METHOD DESCRIPTION: modulators of HCV replicon luciferase signal, primary screen, HCV replication inhibitor project, Huh7 cells, luciferase reporter (AID 1109);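 note: huh7 hepatoma cells harbouring a luciferase neomycin HCV replicon reporter; luciferase luminescence as measure of HCV replicon replication; test concentration not given here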
# CONDITION PARAMETERS: 48 h, higher = more signal
No unit in the answer, only the number.

The cases that follow already have their z-score on record.
COC(=O)C1=CC(c2ccc(CO)cc2)=CC(C2CC2)N(C)C=C1C(=O)OC (configuration not stated) | -0.748
C#CCOc1ccc(C[C@H]2C(=O)O[C@H](Cc3ccccc3)[C@H](/C=C/C3CC3)N2CC#C)cc1 | -2.14
C=CCN1C(=O)[C@@]2(O[C@@H](CCO)[C@H]([Si](C)(C)c3ccc(OC)cc3)[C@H]2C)c2cc(N(C=O)c3ccccc3)ccc21 | -5.12
CCCNC(=O)[C@@H]1c2ccccc2C(=O)N(Cc2cc(C(F)(F)F)cc(C(F)(F)F)c2)[C@H]1c1ccc(CO)cc1 | -0.392
COC(=O)C(CC#Cc1ccc2c(c1)[C@]1(C(=O)N2)[C@H](c2ccccc2OCCO)N2[C@H](c3ccccc3)[C@H](c3ccccc3)OC(=O)[C@H]2[C@@H]1C(=O)N1CCCCCCC1)C(=O)OC | -1.95

Query: # input compound: CC(C)C(=C=CC[C@@H](O)c1ccc(CO)o1)CCO ; wanted: its z-score
Response: -0.744

Query: # input compound: O=C1N(CCS(=O)(=O)c2ccccc2)Cc2ccccc2[C@@H]2OC(c3ccc(OCCCO)cc3)=N[C@]12Cc1ccccc1 ; wanted: its z-score
Response: -1.4

###

# Test system: PRMT1 (protein arginine N-methyltransferase 1)
# METHOD DESCRIPTION: PRMT1 binders on small-molecule microarrays, primary screen, biochemical, small-molecule microarray, 635 nm fluorescence (AID 1088);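 note: binding of Prmt1 protein to compounds spotted on small-molecule microarray slides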
# CONDITION PARAMETERS: small-molecule microarray binding, higher = more signal
Threshold rule: composite z-score greater than or equal to 1 is true (1); below that, false (0).

Before answering, review these 3 worked examples.
CO[C@H]1O[C@H](CO)[C@@H](OC(=O)Nc2ccccc2)[C@H](OC(=O)Nc2ccccc2-c2ccccc2)[C@H]1OC(=O)Nc1ccccc1-c1ccccc1 | true (1)
O=C1c2ccccc2[C@](Cc2ccccc2I)(C(=O)O)[C@H](c2ccc(CO)cc2)N1Cc1ccccc1Cl | true (1)
CC(C)(C)OC(=O)CC[C@@]1(C(=O)NCc2ccccc2)N=C(c2ccc(OCCCO)cc2)O[C@@H]1c1ccccc1CN=[N+]=[N-] | true (1)

Query: Could you please find out whether O=C1c2ccccc2C(=O)c2cc([C@H]3Oc4ccccc4S(=O)(=O)N4CCC[C@@H]34)ccc21 has composite z-score that meets 1 or exceeds it?
Response: false (0)

Query: Could you please find out whether CCOC(=O)C[C@H]1[C@H](OC(=O)c2ccc(-c3ccccc3)cc2)[C@@H](NC(=O)C2CCCCC2)c2cc(OCCCO)ccc2N1C(=O)c1ccc2ccccc2n1 has composite z-score that meets 1 or exceeds it?
Response: true (1)

Query: Could you please find out whether COC(=O)C1=CC(c2ccc(CO)cc2)=CC(c2cccs2)N(C)C=C1C(=O)OC (configuration not stated) has composite z-score that meets 1 or exceeds it?
Response: false (0)

Query: Could you please find out whether O=c1n(-c2ccccc2)c(=O)n2n1CC(COc1ccccc1)=C1[C@@H](CCc3ccccc3)OB(O)C[C@@H]12 has composite z-score that meets 1 or exceeds it?
Response: true (1)
